Test system: PC3
Test: Cellular proliferation assay (Alamar blue), PC3
Type: cell-based
Conditions: Homo sapiens, PC-3, PC-3 cells; 10% FCS; 72 h with compound; Alamar blue 24 h; read-out: pIC50 PC-3 (converted)
The molecules listed here are annotated with their IC50.

[
  {
    "CHEMICAL_STRING": "CN1CCCN(C)C(=O)COc2cc(ccc2NC(=O)Nc2cc(Cl)cc(Cl)c2)Nc2ncnc3[nH]cc(c23)C1",
    "ASSAY_TARGET": "PC3",
    "IC50": "> 10 µM"
  },
  {
    "CHEMICAL_STRING": "CN1CCCN(C)C(=O)COc2cc(ccc2OCCNc2ccc(Cl)cc2)Nc2ncnc3[nH]cc(c23)C1",
    "ASSAY_TARGET": "PC3",
    "IC50": "3.98 µM"
  },
  {
    "CHEMICAL_STRING": "COc1cc2cc(c1OC)CCC(=O)N(C)CCCN(C)Cc1c[nH]c3ncnc(c13)N2",
    "ASSAY_TARGET": "PC3",
    "IC50": "> 10 µM"
  }
]

INPUT: For O=C1CCCCOc2cc(cc(C(F)(F)F)c2)Nc2ncnc3[nH]cc(c23)CN2CCN1CC2 , what is its reported IC50?
OUTPUT: > 10 µM

INPUT: For COc1cc(NC(=O)COc2ccc3cc2OCC(=O)N(C)CCCN(C)Cc2c[nH]c4ncnc(c24)N3)cc(OC)c1OC , what is its reported IC50?
OUTPUT: 6.31 µM

INPUT: For CN1CCN(C)C(=O)CCc2cccc(c2)Nc2ncnc3[nH]cc(c23)C1 , what is its reported IC50?
OUTPUT: > 10 µM

INPUT: For CN1CCCN(C)C(=O)COc2cc(ccc2OCCOc2cc(C(F)(F)F)ccn2)Nc2ncnc3[nH]cc(c23)C1 , what is its reported IC50?
OUTPUT: 5.01 µM

INPUT: For COc1ccc2cc1OCCCCC(=O)N(C)CCCN(C)Cc1c[nH]c3ncnc(c13)N2 , what is its reported IC50?
OUTPUT: > 10 µM

INPUT: For CN1CCCN(C)C(=O)COc2cc(ccc2OCCOC2CCCC2)Nc2ncnc3[nH]cc(c23)C1 , what is its reported IC50?
OUTPUT: 6.31 µM

---

The molecules listed here are annotated with their IC50.
Test system: HCT-116
Experiment: Cellular proliferation assay (Alamar blue), HCT-116
Format: cell-based
Conditions: Homo sapiens; HCT-116 cells; 10% FCS; 72 h with compound; Alamar blue 4 h; read-out: pIC50 HCT-116 (converted)
Supply the numeric figure in nM, leaving out any unit text.

[
  {
    "MOLECULE": "CN1CCCN(C)C(=O)COc2cc(ccc2OCCN2CCCCC2)Nc2ncnc3[nH]cc(c23)C1 [Compound 136]",
    "ASSAY_TARGET": "HCT-116",
    "IC50, nM": 2510
  }
]

Now examine the next entry.
INPUT: For CN1CCCN(C)C(=O)COc2cc(ccc2OCC(=O)NC2CCCCC2)Nc2ncnc3[nH]cc(c23)C1 [Compound 118] , what is its reported IC50?
OUTPUT: 631

---

Test system: PC3
Assay: Cellular proliferation assay (Alamar blue), PC3
Assay type: cell-based
Details: Homo sapiens, PC-3, PC-3 cells; 10% FCS; 72 h with compound; Alamar blue 24 h; read-out: pIC50 PC-3 (converted)
The molecules listed here are annotated with their IC50.

Field: example entries. Status: answers known.
[
  {
    "MOLECULE": "COc1ccc2cc1CN(C)CCCC(=O)N(C)CCCc1c[nH]c3ncnc(c13)N2 [Compound 5]",
    "ASSAY_TARGET": "PC3",
    "IC50": "> 10 µM"
  },
  {
    "MOLECULE": "CN1CCN(C)C(=O)CCCOc2cc(ccc2Cl)Nc2ncnc3[nH]cc(c23)C1 [Compound 42]",
    "ASSAY_TARGET": "PC3",
    "IC50": "> 10 µM"
  },
  {
    "MOLECULE": "COc1ccc2cc1OCC(=O)N(C)CCCN(C)Cc1c[nH]c3ncnc(c13)N2 [Compound 7]",
    "ASSAY_TARGET": "PC3",
    "IC50": "2 µM"
  },
  {
    "MOLECULE": "COc1ccc2cc1OCCCNC(=O)CN(C)Cc1c[nH]c3ncnc(c13)N2 [Compound 6]",
    "ASSAY_TARGET": "PC3",
    "IC50": "3.98 µM"
  },
  {
    "MOLECULE": "COc1ccc2cc1OCCNC(=O)CN(C)Cc1c[nH]c3ncnc(c13)N2 [Compound 22]",
    "ASSAY_TARGET": "PC3",
    "IC50": "6.31 µM"
  },
  {
    "MOLECULE": "O=C1CCCCOc2cc(ccc2Cl)Nc2ncnc3[nH]cc(c23)CN2CCN1CC2 [Compound 104]",
    "ASSAY_TARGET": "PC3",
    "IC50": "> 10 µM"
  }
]

Now examine the next entry.
INPUT: Record CCOCCOc1ccc2cc1OCC(=O)N(C)CCCNCc1c[nH]c3ncnc(c13)N2 [Compound 75] : what is its IC50 with PC3?
OUTPUT: > 10 µM

---

Test system: A2780
Assay: Cellular proliferation assay (Alamar blue), A2780
Format: cell-based
Details: Homo sapiens, A2780, A2780 cells; 10% FCS; 72 h with compound; Alamar blue 24 h; read-out: pIC50 A2780 (converted)
ENDPOINT: IC50

Field: example entries. Status: answers known.
[
  {
    "COMPOUND": "COc1cc(NC(=O)COc2ccc3cc2OCC(=O)N(C)CCCN(C)Cc2c[nH]c4ncnc(c24)N3)cc(OC)c1OC [Compound 71]",
    "RESULT": "1000 nM"
  },
  {
    "COMPOUND": "COc1ccc2cc1CN(C)CC(=O)N(C)CCCc1c[nH]c3ncnc(c13)N2 [Compound 34]",
    "RESULT": "> 10000 nM"
  }
]

INPUT: Record O=C1CCCCOc2cc(ccc2N2CCOCC2)Nc2ncnc3[nH]cc(c23)CN2CCN1CC2 [Compound 121] : what is its IC50 with A2780?
OUTPUT: > 10000 nM

INPUT: Record CN1CCCN(C)C(=O)COc2cc(ccc2NC(=O)NC2CCCC2)Nc2ncnc3[nH]cc(c23)C1 [Compound 66] : what is its IC50 with A2780?
OUTPUT: > 10000 nM

INPUT: Record COc1ccc2cc1OCCNC(=O)CN(C)Cc1c[nH]c3ncnc(c13)N2 [Compound 22] : what is its IC50 with A2780?
OUTPUT: 2000 nM

INPUT: Record CN1CCCN(C)C(=O)CCc2cccc(c2)Nc2ncnc3[nH]cc(c23)C1 [Compound 21] : what is its IC50 with A2780?
OUTPUT: 2000 nM

INPUT: Record CCOc1ccc2cc1OCC(=O)N(C)CCCN(C)Cc1c[nH]c3ncnc(c13)N2 [Compound 63] : what is its IC50 with A2780?
OUTPUT: 501 nM

---

Test system: H1299
Test: Cellular proliferation assay (Alamar blue), H1299
Format: cell-based
Conditions: Homo sapiens, NCI-H1299, H1299 cells; 10% FCS; 72 h with compound; Alamar blue 4 h; read-out: pIC50 H1299 (converted)
ENDPOINT: IC50 (µM)
Supply the numeric figure in µM, leaving out any unit text.

INPUT: For CC(C)Oc1ccc2cc1OCC(=O)N(C)CCCN(C)Cc1c[nH]c3ncnc(c13)N2 , what is its reported IC50?
OUTPUT: 0.631

INPUT: For COCCOc1ccc2cc1OCC(=O)N(C)CCCN(C)Cc1c[nH]c3ncnc(c13)N2 , what is its reported IC50?
OUTPUT: 1

INPUT: For CN1CCCN(C)C(=O)COc2cc(ccc2OCCCN2CCOCC2)Nc2ncnc3[nH]cc(c23)C1 , what is its reported IC50?
OUTPUT: 3.98

INPUT: For COCCOc1ccc2cc1OCC(=O)N(C)CCCNCc1c[nH]c3ncnc(c13)N2 , what is its reported IC50?
OUTPUT: 5.01

INPUT: For CC(C)NC(=O)Nc1ccc2cc1OCC(=O)N(C)CCCN(C)Cc1c[nH]c3ncnc(c13)N2 , what is its reported IC50?
OUTPUT: 7.94

---

Test system: U87-MG
Test: Cellular proliferation assay (Alamar blue), U87-MG
Format: cell-based
Conditions: Homo sapiens, U-87 MG; U87-MG cells; 10% FCS; 72 h with compound; Alamar blue 6 h; read-out: pIC50 U87MG (converted)
The molecules listed here are annotated with their IC50.

Field: example entries. Status: answers known.
[
  {
    "CHEMICAL_STRING": "CN1CCCN(C)C(=O)COc2cc(ccc2N2CCOCC2)Nc2ncnc3[nH]cc(c23)C1",
    "ASSAY_TARGET": "U87-MG",
    "IC50": "2000 nM"
  },
  {
    "CHEMICAL_STRING": "COc1ccc2cc1OCC(=O)N(C)CCCN(CC1CC1)Cc1c[nH]c3ncnc(c13)N2",
    "ASSAY_TARGET": "U87-MG",
    "IC50": "> 10000 nM"
  },
  {
    "CHEMICAL_STRING": "CN1CCCN(C)C(=O)COc2cc(ccc2OC(F)F)Nc2ncnc3[nH]cc(c23)C1",
    "ASSAY_TARGET": "U87-MG",
    "IC50": "2510 nM"
  },
  {
    "CHEMICAL_STRING": "COc1ccc2cc1OCC(=O)N(C)CCCN(Cc1ccncc1)Cc1c[nH]c3ncnc(c13)N2",
    "ASSAY_TARGET": "U87-MG",
    "IC50": "> 10000 nM"
  },
  {
    "CHEMICAL_STRING": "CN1CCCN(C)C(=O)Cc2cccc(c2)Nc2ncnc3[nH]cc(c23)C1",
    "ASSAY_TARGET": "U87-MG",
    "IC50": "10000 nM"
  }
]

INPUT: Record COc1ccc2cc1OCC(=O)N(C)CCN(C)CCCc1c[nH]c3ncnc(c13)N2 : what is its IC50 with U87-MG?
OUTPUT: > 10000 nM

INPUT: Record COc1ccc2cc1OCCCNC(=O)CN(C)Cc1c[nH]c3ncnc(c13)N2 : what is its IC50 with U87-MG?
OUTPUT: 1580 nM

Taken from patent US8318731B2.
